Values compiled from ChEMBL document CHEMBL1201862.

- target.desc: UniProtKB Q9XUB2
- Sequence (Q9XUB2 whole entry): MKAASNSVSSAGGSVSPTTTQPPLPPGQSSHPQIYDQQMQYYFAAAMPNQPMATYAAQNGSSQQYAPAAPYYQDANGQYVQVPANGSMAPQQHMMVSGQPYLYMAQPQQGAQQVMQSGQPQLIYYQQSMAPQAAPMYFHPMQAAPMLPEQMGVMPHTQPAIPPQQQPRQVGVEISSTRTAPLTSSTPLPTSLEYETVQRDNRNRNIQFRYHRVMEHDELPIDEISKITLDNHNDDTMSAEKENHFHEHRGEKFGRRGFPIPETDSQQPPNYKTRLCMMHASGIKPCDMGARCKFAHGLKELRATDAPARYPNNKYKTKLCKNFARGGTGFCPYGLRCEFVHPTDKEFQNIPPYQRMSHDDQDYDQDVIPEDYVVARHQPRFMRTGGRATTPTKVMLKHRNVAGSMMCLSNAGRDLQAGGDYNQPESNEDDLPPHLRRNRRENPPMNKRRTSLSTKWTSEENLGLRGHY
- measurement.notes: MEX-5/TCR-2 RNA interaction inhibitors, dose response, biochemical, C. elegans, fluorescence polarization (AID 1960)
Calls of active or inactive are those of the source. Cut-off read from the data, not from the text of the source: actives have a measured EC50 and inactives only a lower limit.
observable: EC50

Fill in: UniProtKB Q9XUB2 EC50 for c1ccc(-c2cn3nc(-c4ccccc4)c(-c4ccccc4)nc3n2)cc1 = 3.84 µM (active)

Entry COC(=O)Cn1cc(C=C2C(=O)NC(=O)NC2=O)c2ccccc21 : EC50 on UniProtKB Q9XUB2 = > 300 µM (not active)

Value sought: EC50, system UniProtKB Q9XUB2, item COc1ccc(C2C(C#N)=C(/N=C/N3CCN(C)CC3)OC3=C2C(=O)CC(C)(C)C3)cc1 (stereo not given) . Result: > 300 µM (not active)

Assay UniProtKB Q9XUB2, sample CC(C)COc1ccc(/C=C2/Sc3ccccc3C2=O)cc1 , EC50 read: > 300 µM (not active)

For Cn1c(=O)c2[nH]c(N=NNc3ccccc3F)nc2n(C)c1=O on UniProtKB Q9XUB2, measured EC50 was 21.7 µM (active)

Item: Cc1cc(C)cc(N2C(=O)NC(=O)/C(=C\c3cc(C)n(C)c3C)C2=O)c1 | System: UniProtKB Q9XUB2 | EC50: 23.5 µM (active)

Measured EC50 (UniProtKB Q9XUB2), entry CCn1c(=N)c(S(=O)(=O)c2ccccc2)cc2c(=O)n3ccccc3nc21 : > 300 µM (not active)

Measured on UniProtKB Q9XUB2, Cc1cc(/C=C2\C(=O)NC(=O)N(c3ccc(F)cc3)C2=O)c(C)n1-c1cccc(C(=O)O)c1 has a documented EC50 of > 300 µM (not active)

Form field EC50 for item N#Cc1cc(NC(=O)c2ccc(F)cc2)c(O)n2c1nc1ccccc12 on UniProtKB Q9XUB2: 35 µM (active)

Lab note: compound Cc1ccc(/C=C2/C(=O)NC(=O)N(CCc3ccc(F)cc3)C2=O)o1 tested on UniProtKB Q9XUB2; recorded EC50 was 290 µM (active)
